target.entity: UniProt P50406
Sequence (P50406 whole entry): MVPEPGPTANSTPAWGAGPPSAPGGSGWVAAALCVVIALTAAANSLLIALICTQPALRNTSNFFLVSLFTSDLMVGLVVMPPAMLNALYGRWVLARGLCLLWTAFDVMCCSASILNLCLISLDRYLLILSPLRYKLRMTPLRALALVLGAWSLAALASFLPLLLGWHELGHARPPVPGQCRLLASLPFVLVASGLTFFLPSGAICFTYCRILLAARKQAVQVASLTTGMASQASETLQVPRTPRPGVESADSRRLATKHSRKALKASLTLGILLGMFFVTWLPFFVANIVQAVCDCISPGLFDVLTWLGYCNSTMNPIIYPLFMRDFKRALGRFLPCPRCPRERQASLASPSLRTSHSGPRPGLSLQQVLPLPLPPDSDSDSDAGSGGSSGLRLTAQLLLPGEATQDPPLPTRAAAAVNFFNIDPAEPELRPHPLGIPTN
assay.info: Antagonist activity at human 5HT6 receptor expressed in HEK293F cells assessed as inhibition of 5-HT-stimulated cAMP production after 30 mins by HTRF assay
Documented IC50 across a set of molecules
measure: IC50 (nM)

> print(dat)
                                   molecule  measurement
1  O=S(=O)(Nc1ccc2c(c1)/C(=N/NC1=NCCN1)CC2)c1c(Cl)nc2sccn12          176
2  CN1CCOc2ccc(S(=O)(=O)Nc3ccc4c(c3)/C(=N/NC(=N)N)CC4)cc21          581
3  Cl.N=C(N)N/N=C1\CCc2ccc(NS(=O)(=O)c3ccc4ccccc4c3)cc21           53
4  Cl.N=C(N)N/N=C1\CCc2ccc(NS(=O)(=O)c3c(Cl)nc4sccn34)cc21           96
5  CC1Cc2ccc(NS(=O)(=O)c3c(Cl)nc4sccn34)cc2/C1=N/NC(=N)N.Cl (racemic)           58
6  CN1CCC(C2=CCc3ccc(NS(=O)(=O)c4c(Cl)nc5sccn45)cc32)C1 (centres undefined)         1580
7  CN(c1ccc2c(c1)/C(=N/NC(=N)N)CC2)S(=O)(=O)c1c(Cl)nc2sccn12.Cl           54
8  Cl.N=C(N)N/N=C1\CCc2cc(NS(=O)(=O)c3c(Cl)nc4sccn34)ccc21           47
9  CC1(C)C/C(=N\NC(=N)N)c2cc(NS(=O)(=O)c3c(Cl)nc4sccn34)ccc21.Cl          238
